# Test system: Mycobacteroides abscessus
# assay notes: Antimycobacterial activity against Mycobacterium abscessus ATCC 19977 assessed as reduction in bacterial growth by microplate Alamar blue assay
# Type: functional
Assignment: determine reported MIC for the given molecules.
// return numeric value only (unit: µM, not printed)

# query: MIC of entry C/C=C/C[C@@H]1NC(=O)[C@H](CC(C)C)N2C(=O)[C@H](CC(C)[C@H]2OC)N(C)C(=O)[C@H](C)NC(=O)[C@H](Cc2ccc(OC)c([N+](=O)[O-])c2)NC(=O)[C@H](CC(C)C)N(C)C(=O)[C@H](Cc2cn(C(C)(C)[C@H](O)COC)c3ccccc23)NC1=O (stereo partly drawn)
0.52

Fill blank: measured MIC of the molecule C/C=C/C[C@@H]1NC(=O)[C@H](CC(C)C)N2C(=O)[C@H](C[C@@H](C)[C@H]2OCC)N(C)C(=O)[C@H](C)NC(=O)[C@H](Cc2ccc(O)c([N+](=O)[O-])c2)NC(=O)[C@H](CC(C)C)N(C)C(=O)[C@H](Cc2cn(C(C)(C)[C@H](O)CCl)c3ccccc23)NC1=O is ____.
1.1

Quick check: MIC of C/C=C/C[C@@H]1NC(=O)[C@H](CC(C)C)N2C(=O)[C@H](C[C@@H](C)[C@@H]2OCCCC)N(C)C(=O)[C@H](C)NC(=O)[C@H](Cc2ccc(O)c([N+](=O)[O-])c2)NC(=O)[C@H](CC(C)C)N(C)C(=O)[C@H](Cc2cn(C(C)(C)[C@H](O)CCl)c3ccccc23)NC1=O ?
9.4

Recorded values, source ChEMBL document CHEMBL6177961.
